Entry source: patent US20260062422A1

Test system: T-Rex 293 cell line SC3 cells having increased expression of androgen receptor protein due to exposure to doxycycline
ASSAY REMARKS: Cellular growth inhibition, T-Rex 293 SC3 cells with doxycycline (androgen receptor induced), CellTiter-Glo
Assay type: cell-based
CONDITION SET: T-Rex 293 SC3 cells with 10 ng/mL doxycycline (increased androgen receptor expression), 72 hours
PROPERTY NAME: GI50

1. Cc1sc2c(c1C)C(c1ccc(C3CC(C4CCN(c5ncc(C(=O)N[C@H]6C(C)(C)[C@H](Oc7ccc(C#N)c(Cl)c7)C6(C)C)cn5)CC4)C3)cc1)=NC(C)c1nnc(C)n1-2 (some centres unmarked) [Compound I-467]; < 500 nM
2. CC[C@@H]1N=C(c2ccc(CC3CCC4(C3)CN(c3ncc(C(=O)N[C@H]5C(C)(C)[C@H](Oc6ccc(C#N)c(Cl)c6)C5(C)C)cn3)CCO4)cc2)c2c(sc(C)c2C)-n2c(C)nnc21 (some centres unmarked) [Compound I-614]; < 500 nM
3. Cc1sc2c(c1C)C(c1ccc(C(C)(C)N3CC4(CCN(c5ncc(C(=O)N[C@H]6C(C)(C)[C@H](Oc7ccc(C#N)c(Cl)c7)C6(C)C)cn5)CC4)C3)cc1)=N[C@@H](Cc1ncco1)c1nnc(C)n1-2 [Compound I-438]; < 500 nM
4. Cc1sc2c(c1C)C(c1ccc(C3CC(C4CCN(c5cnc(C(=O)N[C@H]6C(C)(C)[C@H](Oc7ccc(C#N)c(Cl)c7)C6(C)C)cn5)CC4)C3)cc1)=NC(C)c1nnc(C)n1-2 (some centres unmarked) [Compound I-471]; 500 to 1500 nM
5. Cc1sc2c(c1C)C(c1ccc(C3CC3C3CC4(CCN(c5ncc(C(=O)N[C@H]6C(C)(C)[C@H](Oc7ccc(C#N)c(Cl)c7)C6(C)C)cn5)CC4)C3)cc1)=N[C@@H](Cc1ncco1)c1nnc(C)n1-2 (some centres unmarked); < 500 nM

----------
System: T-Rex 293 cell line SC3 cells lacking increased expression of androgen receptor protein
ASSAY REMARKS: Cellular growth inhibition, T-Rex 293 SC3 cells without doxycycline, CellTiter-Glo
Assay type: cell-based
CONDITION SET: 72 h, T-Rex 293 SC3 cells not exposed to doxycycline, CellTiter-Glo 2.0
Below is a list of entries, each paired with its recorded GI50 value.
PROPERTY NAME: GI50

1. Cc1sc2c(c1C)C(c1ccc(N3CC(CC4CCN(c5ccc(C(=O)N[C@H]6C(C)(C)[C@H](Oc7ccc(C#N)c(Cl)c7)C6(C)C)nc5)CC4)C3)cc1)=N[C@@H](C)c1nnc(C)n1-2 [Compound I-449]; > 3 µM
2. Cc1sc2c(c1C)C(c1ccc(Nc3ccc(N4CCN(c5ncc(C(=O)N[C@H]6C(C)(C)[C@H](Oc7ccc(C#N)c(Cl)c7)C6(C)C)cn5)CC4)c(C(F)(F)F)c3)cc1)=N[C@@H](C)c1nnc(C)n1-2 [Compound I-602]; > 3 µM
3. Cc1sc2c(c1C)C(c1ccc(CC3CCN(c4ncc(C(=O)N[C@H]5C(C)(C)[C@H](Oc6ccc(C#N)c(Cl)c6)C5(C)C)cn4)CC3)cc1)=N[C@@H](C)c1nnc(C)n1-2 [Compound I-557]; < 0.5 µM
4. CCNC(=O)C[C@@H]1N=C(c2ccc(OCCC3CCN(c4ncc(C(=O)N[C@H]5C(C)(C)[C@H](Oc6ccc(C#N)c(Cl)c6)C5(C)C)cn4)CC3)cc2)c2c(sc(C)c2C)-n2c(C)nnc21 [Compound I-69]; < 0.5 µM
5. Cc1sc2c(c1C)C(c1ccc(N3CCC[C@@H](OCCc4ncc(C(=O)N[C@H]5C(C)(C)[C@H](Oc6ccc(C#N)c(Cl)c6)C5(C)C)cn4)C3)cc1)=N[C@@H](Cc1ncco1)c1nnc(C)n1-2 [Compound I-451]; 0.5 to 1.5 µM
6. Cc1sc2c(c1C)C(c1ccc(Cl)cc1)=N[C@@H](CC(=O)NCCN1CCN(CC3CCN(c4ncc(C(=O)N[C@H]5C(C)(C)[C@H](Oc6ccc(C#N)c(Cl)c6)C5(C)C)cn4)CC3)CC1)c1nnc(C)n1-2 [Compound I-35]; 0.5 to 1.5 µM
7. Cc1sc2c(c1C)C(c1ccc(CCC3CC4(CCCN(c5ncc(C(=O)N[C@H]6C(C)(C)[C@H](Oc7ccc(C#N)c(Cl)c7)C6(C)C)cn5)C4)C3)cc1)=N[C@@H](Cc1ncco1)c1nnc(C)n1-2 [Compound I-241]; < 0.5 µM
8. Cc1sc2c(c1C)C(c1ccc(N[C@H]3CC[C@H](CNc4ncc(C(=O)N[C@H]5C(C)(C)[C@H](Oc6ccc(C#N)c(Cl)c6)C5(C)C)cn4)CC3)cc1)=N[C@@H](Cc1ncco1)c1nnc(C)n1-2 [Compound I-649]; < 0.5 µM
9. CCNC(=O)C[C@@H]1N=C(c2ccc(C#CCN3CCN(c4ncc(C(=O)N[C@H]5C(C)(C)[C@H](Oc6ccc(C#N)c(Cl)c6)C5(C)C)cn4)CC3)cc2)c2c(sc(C)c2C)-n2c(C)nnc21 [Compound I-54]; 0.5 to 1.5 µM

----------
System: T-Rex 293 cell line SC3 cells lacking increased expression of androgen receptor protein
ASSAY REMARKS: Cellular growth inhibition, T-Rex 293 SC3 cells without doxycycline, CellTiter-Glo
Format: cell-based
CONDITION SET: 72 h, T-Rex 293 SC3 cells not exposed to doxycycline, CellTiter-Glo 2.0
PROPERTY NAME: GI50

1) Cc1sc2c(c1C)C(c1ccc(CN3CC4(CCN(c5ncc(C(=O)N[C@H]6C(C)(C)[C@H](Oc7ccc(C#N)c(Cl)c7)C6(C)C)cn5)CC4)C3)cc1)=N[C@@H](Cc1ncco1)c1nnc(C)n1-2 [Compound I-141]; 0.5 to 1.5 µM
2) Cc1sc2c(c1C)C(c1ccc(O[C@H]3C[C@@]4(CCCN(c5ncc(C(=O)N[C@H]6C(C)(C)[C@H](Oc7ccc(C#N)c(Cl)c7)C6(C)C)cn5)C4)C3)cc1)=N[C@@H](Cc1ncco1)c1nnc(C)n1-2 [Compound I-193]; 0.5 to 1.5 µM

----------
Tested on: T-Rex 293 cell line SC3 cells lacking increased expression of androgen receptor protein
ASSAY REMARKS: Cellular growth inhibition, T-Rex 293 SC3 cells without doxycycline, CellTiter-Glo
Assay type: cell-based
CONDITION SET: 72 h, T-Rex 293 SC3 cells not exposed to doxycycline, CellTiter-Glo 2.0
PROPERTY NAME: GI50

1. CC[C@@H]1N=C(c2ccc(N3CC(CC4CCN(c5ncc(C(=O)N[C@H]6C(C)(C)[C@H](Oc7ccc(C#N)c(Cl)c7)C6(C)C)cn5)CC4)C3)cc2)c2c(sc(C)c2C)-n2c(C)nnc21; > 3000 nM
2. Cc1sc2c(c1C)C(c1ccc(O[C@H]3CC[C@@]4(CCN(c5ncc(C(=O)N[C@H]6C(C)(C)[C@H](Oc7ccc(C#N)c(Cl)c7)C6(C)C)cn5)C4)C3)cc1)=N[C@@H](Cc1ncco1)c1nnc(C)n1-2; 500 to 1500 nM
3. Cc1sc2c(c1C)C(c1ccc(CCCC3CC4(C3)CN(c3ncc(C(=O)N[C@H]5C(C)(C)[C@H](Oc6ccc(C#N)c(Cl)c6)C5(C)C)cn3)C4)cc1)=N[C@@H](C)c1nnc(C)n1-2; > 3000 nM
4. Cc1sc2c(c1C)C(c1ccc(OC3CC4(CCN(c5ncc(C(=O)N[C@H]6C(C)(C)[C@H](Oc7ccc(C#N)c(Cl)c7)C6(C)C)cn5)CC4)C3)cc1)=N[C@@H](CC#N)c1nnc(C)n1-2; > 3000 nM
5. Cc1sc2c(c1C)C(c1ccc(CCCOC3CCN(c4ncc(C(=O)N[C@H]5C(C)(C)[C@H](Oc6ccc(C#N)c(Cl)c6)C5(C)C)cn4)CC3)cc1)=N[C@H](Cc1ccccn1)c1nnc(C)n1-2; > 3000 nM
6. Cc1sc2c(c1C)C(c1ccc(OC3CCN(c4ncc(C(=O)N[C@H]5C(C)(C)[C@H](Oc6ccc(C#N)c(Cl)c6)C5(C)C)cn4)CC3)cc1)=N[C@@H](C)c1nnc(C)n1-2; 1500 to 3000 nM
7. Cc1sc2c(c1C)C(c1ccc(C#C[C@H]3C[C@@]4(CCCN(c5ncc(C(=O)N[C@H]6C(C)(C)[C@H](Oc7ccc(C#N)c(Cl)c7)C6(C)C)cn5)C4)C3)cc1)=N[C@@H](Cc1ncco1)c1nnc(C)n1-2; > 3000 nM
8. Cc1sc2c(c1C)C(c1ccc(Cl)cc1)=N[C@@H](CC(=O)NCCCOCCCOC1CCN(c3ncc(C(=O)N[C@H]4C(C)(C)[C@H](Oc5ccc(C#N)c(Cl)c5)C4(C)C)cn3)CC1)c1nnc(C)n1-2; 500 to 1500 nM
9. Cc1sc2c(c1C)C(c1ccc(C(=O)N3CCC(C(=O)c4ncc(C(=O)N[C@H]5C(C)(C)[C@H](Oc6ccc(C#N)c(Cl)c6)C5(C)C)cn4)CC3)cc1)=N[C@@H](Cc1ncco1)c1nnc(C)n1-2; > 3000 nM
